Hey, just so you know, these numbers are from ChEMBL document CHEMBL4513216.

# Test system: Plasmodium falciparum
# protocol.text: Screen against P. falciparum Asexual Blood Stage (ABS), at 5uM
# Format: functional, Dd2
# assay.conditions: tested at 5 uM
The campaign covered roughly 65,000 compounds. About 2,100 (3.2%) showed an effect of 50% or more. The median lay at about -52%. This excerpt belongs to a sample that is enriched for strong results.
Would you mind sorting the entries by INHIBITION according to these classes? bottom = under -10%, middle = from -10% up to 80%, top = 80% and over

The entry to classify is O=C(CCc1ccsc1)N1CCC(C(=O)O)(c2ccccc2)CC1 ; which class holds it? bottom

The entry to classify is Cc1nc(CC(=O)N2CCN(Cc3ccc(C#N)cc3)CC2)cs1 ; which class holds it? bottom

The entry to classify is Cc1cnc(N2CCOC3(CCCN(CC(=O)N(C)C)C3)C2)nc1 (stereo unspecified) ; which class holds it? middle

The entry to classify is O=C(Nc1ccccc1)[C@H]1CN2CC[C@H]1C[C@@H]2Cn1cc(CCO)nn1 ; which class holds it? bottom

The entry to classify is Cc1nn(C)c(C)c1CN1CCNCC1 ; which class holds it? bottom

The entry to classify is COc1cc(C)c(-c2ccc(F)c3c2OC(CN)C3)cc1C (stereo unspecified) ; which class holds it? top

The entry to classify is COc1cccc(Nc2nc(N3CCCC3)nc3c2CNCC3)c1 ; which class holds it? top

The entry to classify is Cc1noc(C)c1CN1CC[C@@H]2O[C@H](COCC3CC3)CC[C@@H]21 ; which class holds it? middle

The entry to classify is CCC1CN(CC(=O)NCCN2CCCCCC2)c2ccccc2S1 (stereo unspecified) ; which class holds it? middle

The entry to classify is Fc1cccc(Nc2nc(N3CCCC3)nc3c2CNCC3)c1 ; which class holds it? top
